biological target: T1, soluble human CD3 epsilon chain (human, UniProt P07766 23-126); assay: SPR
T1 construct: also called CD3ε
T1 sequence (P07766 23-126 limits assumed): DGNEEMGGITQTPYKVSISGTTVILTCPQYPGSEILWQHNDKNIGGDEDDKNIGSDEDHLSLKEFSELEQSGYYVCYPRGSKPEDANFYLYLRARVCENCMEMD
quantity_name: Kd (nM)

[[record]]
binder = "TR01H082-E22Hh/none-Hi-Kn010G3/TR01L024-k0 (antibody, V domains shown, one-arm) VH: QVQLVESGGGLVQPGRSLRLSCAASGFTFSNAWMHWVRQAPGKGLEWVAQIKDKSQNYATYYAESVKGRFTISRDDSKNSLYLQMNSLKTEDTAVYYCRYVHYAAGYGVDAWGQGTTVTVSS VL: DIVMTQSPLSLPVTPGEPASISCQASESPVHSNRNTYLHWYLQKPGQSPQLLIYKVSNRFSGVPDRFSGSGSGTDFTLKISRVEAEDVGVYYCTQGTQVPYTFGQGTKLEIK"
value_units = "nM"
experimental_value = 47.6

[[record]]
binder = "TR01H016-E22Hh/none-Hi-Kn010G3/L0000-k0 (antibody, V domains shown, one-arm) VH: QVQLVESGGGLVQPGRSLRLSCAASGFTFSNAWMHWVRQAPGKGLEWVAQIKGKSNNYATYYAESVKGRFTISRADSKNSIYLQMNSLKTEDTAVYYCRYVHYSYSYGVDIWGQGTTVTVSS VL: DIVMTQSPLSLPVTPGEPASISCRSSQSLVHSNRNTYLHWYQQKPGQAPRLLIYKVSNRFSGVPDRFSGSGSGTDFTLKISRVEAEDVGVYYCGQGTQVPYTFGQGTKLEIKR"
value_units = "nM"
experimental_value = 36.9


This collection of values is drawn from patent US20250066503A1.
